Target: T1, human TGFβ1 (human, UniProt P01137 279-390)
T1 construct: also called TGFβ1 homodimer
T1 sequence (P01137 279-390 limits assumed): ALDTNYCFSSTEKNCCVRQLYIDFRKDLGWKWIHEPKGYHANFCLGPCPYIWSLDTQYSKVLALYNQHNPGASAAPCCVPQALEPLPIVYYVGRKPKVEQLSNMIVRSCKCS
Test: Biacore off-rate vs wt GC1008, 50 nM
The reader will find reported kd var/kd wt values listed item by item below.

binder	kd var/kd wt
S30G (antibody, V domains shown, GC1008 IgG4 variant) VH: QVQLVQSGAEVKKPGSSVKVSCKASGYTFGSNVISWVRQAPGQGLEWMGGVIPIVDIANYAQRFKGRVTITADESTSTTYMELSSLRSEDTAVYYCASTLGLVLDAMDYWGQGTLVTVSS VL: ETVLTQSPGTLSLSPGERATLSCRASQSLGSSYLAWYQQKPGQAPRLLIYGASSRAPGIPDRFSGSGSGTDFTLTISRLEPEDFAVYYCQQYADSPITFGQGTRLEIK	0.9
I52V (antibody, V domains shown, GC1008 IgG4 variant) VH: QVQLVQSGAEVKKPGSSVKVSCKASGYTFSSNVISWVRQAPGQGLEWMGGVVPIVDIANYAQRFKGRVTITADESTSTTYMELSSLRSEDTAVYYCASTLGLVLDAMDYWGQGTLVTVSS VL: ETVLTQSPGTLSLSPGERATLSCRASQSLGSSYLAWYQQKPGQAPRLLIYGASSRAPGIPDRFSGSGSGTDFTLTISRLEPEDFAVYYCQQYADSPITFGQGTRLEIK	0.9
